Value source: ChEMBL document CHEMBL1961873

A collection of compounds and their measured inhibition
Target: Proto-oncogene tyrosine-protein kinase receptor Ret (Homo sapiens);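 note: each listed value is an averaged inhibition figure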
Conditions: at 1 µM

STRUCTURE	TARGET_OR_TEST_SYSTEM	RESULT_UNIT	inhibition
CCn1c(-c2nonc2N)nc2ccncc21	Proto-oncogene tyrosine-protein kinase receptor Ret (Homo sapiens)	%	5.58
CCn1c(-c2nonc2N)nc2cncc(C(=O)N3CC[C@H](N)C3)c21	Proto-oncogene tyrosine-protein kinase receptor Ret (Homo sapiens)	%	4.11
COc1ccc(COc2ccc(Cc3cnc(N)nc3N)cc2OC)cc1	Proto-oncogene tyrosine-protein kinase receptor Ret (Homo sapiens)	%	9.77
NCc1ccc(-c2nc(-c3ccc(Cl)c(O)c3)c(-c3ccncc3)[nH]2)cc1	Proto-oncogene tyrosine-protein kinase receptor Ret (Homo sapiens)	%	76.6
NS(=O)(=O)c1cccc(-c2ccc3c(NC(=O)C4CC4)n[nH]c3c2)c1	Proto-oncogene tyrosine-protein kinase receptor Ret (Homo sapiens)	%	1.62
O=C1Nc2ccc(C(=O)c3ccco3)cc2C1=Cc1cc(Cl)c(O)c(Cl)c1	Proto-oncogene tyrosine-protein kinase receptor Ret (Homo sapiens)	%	58.1
Nc1nc(-c2ccc3c(c2)C(=Cc2cc(Br)c(O)c(Br)c2)C(=O)N3)cs1	Proto-oncogene tyrosine-protein kinase receptor Ret (Homo sapiens)	%	12.3
[O-][S+]1CCN(Cc2ccc(-c3ccc4ncnc(Nc5ccc(OCc6ccccc6)c(F)c5)c4c3)o2)CC1	Proto-oncogene tyrosine-protein kinase receptor Ret (Homo sapiens)	%	9.08
Nc1nc(-c2ccccn2)c(-c2ccc3ncccc3n2)s1	Proto-oncogene tyrosine-protein kinase receptor Ret (Homo sapiens)	%	4.76
N#Cc1c(NC(=O)c2cccc3ccccc23)sc2c1CCCC2	Proto-oncogene tyrosine-protein kinase receptor Ret (Homo sapiens)	%	5.82
COc1cc2ncn(-c3cc(OCc4ccccc4C(F)(F)F)c(C(N)=O)s3)c2cc1OC	Proto-oncogene tyrosine-protein kinase receptor Ret (Homo sapiens)	%	41.6
